Sourced from patent US20070179060A1

As shown below, each of these compounds has a reported melting point value.
MEASURED PROPERTY: melting point

COMPOUND: COC(=O)c1nc(-c2ccc(Cl)c(OC)c2F)cc(NC(C)=O)c1Cl
READOUT VALUE: 159 to 160 °C
//
COMPOUND: COc1c(Cl)ccc(-c2cc(N)c(Cl)c(C(=O)O)n2)c1Cl [Compound 110]
READOUT VALUE: 187 to 188 °C (dec.)
//
COMPOUND: COc1c(Br)ccc(-c2cc(N)c(Cl)c(C(=O)O)n2)c1F
READOUT VALUE: 176 to 177 °C
//
COMPOUND: COC(=O)c1nc(-c2ccc(Cl)c(C)c2F)cc(NC(C)=O)c1Cl
READOUT VALUE: 151 to 152 °C
//
COMPOUND: CCC(F)c1c(Cl)ccc(-c2cc(N)c(Cl)c(C(=O)OC)n2)c1F (centres unmarked)
READOUT VALUE: 165 to 167 °C (dec.)

* * *

MEASURED PROPERTY: melting point

STRUCTURE NOTATION: COC(=O)c1nc(-c2ccc(Cl)c(OC)c2F)c(F)c(N)c1Cl
READOUT VALUE: 172 to 173 °C

STRUCTURE NOTATION: COC(=O)c1nc(-c2ccc(Br)c(OC)c2F)cc(N)c1Cl
READOUT VALUE: 164 to 165 °C

STRUCTURE NOTATION: COC(=O)c1nc(-c2ccc(C(F)F)c(OC)c2Cl)cc(N)c1Cl
READOUT VALUE: 134 to 136 °C

STRUCTURE NOTATION: COC(=O)c1nc(-c2ccc(Cl)c(C(F)F)c2F)cc(N)c1Cl
READOUT VALUE: 145 to 146 °C

STRUCTURE NOTATION: COC(=O)c1nc(-c2ccc(F)c(C)c2F)cc(N)c1Cl
READOUT VALUE: 129 to 130 °C

STRUCTURE NOTATION: COCOc1c(Cl)ccc(-c2cc(NC(C)=O)c(Cl)c(C(=O)OC)n2)c1F
READOUT VALUE: 122 to 123 °C

STRUCTURE NOTATION: CCOc1c(F)ccc(-c2cc(N)c(Cl)c(C(=O)OC)n2)c1F
READOUT VALUE: 158 to 159 °C

STRUCTURE NOTATION: COc1c(C)cc(F)c(-c2cc(N)c(Cl)c(C(=O)O)n2)c1F
READOUT VALUE: 167 to 168 °C

STRUCTURE NOTATION: CCN(CC)c1c(Cl)ccc(-c2cc(N)c(Cl)c(C(=O)O)n2)c1F
READOUT VALUE: 174 to 175 °C

* * *

- System: Veronica persica
- RUN DESCRIPTION: Postemergence herbicidal activity in cereal crops
- Assay type: in vivo
- SETTINGS: Veronica persica, post-emergence, 480 h, post-emergent, 35 g ai/ha, after 20-22 days; read-out: % Control VERPE
MEASURED PROPERTY: pest or weed control at 35 g/ha (%)

MOLECULE: COc1c(Cl)ccc(-c2cc(N)c(Cl)c(C(=O)O)n2)c1Cl [Compound 103]
READOUT VALUE: 75
--
MOLECULE: COC(=O)c1nc(-c2ccc(Cl)c(C(F)C(F)(F)F)c2F)cc(N)c1Cl (centres unmarked) [Compound 65]
READOUT VALUE: 40
--
MOLECULE: COC(=O)c1nc(-c2ccc(Cl)c(OC)c2Cl)cc(N)c1Cl [Compound 44]
READOUT VALUE: 60
--
MOLECULE: COC(=O)c1nc(-c2ccc(Cl)c(OC)c2F)c(F)c(N)c1Cl [Compound 14]
READOUT VALUE: 65
--
MOLECULE: COC(=O)c1nc(-c2c(F)cc(C)c(OC)c2F)cc(N)c1Cl [Compound 51]
READOUT VALUE: 30
